assay_system: CHK2 (Homo sapiens)
Construct: made in house
Sequence (O96017 whole entry): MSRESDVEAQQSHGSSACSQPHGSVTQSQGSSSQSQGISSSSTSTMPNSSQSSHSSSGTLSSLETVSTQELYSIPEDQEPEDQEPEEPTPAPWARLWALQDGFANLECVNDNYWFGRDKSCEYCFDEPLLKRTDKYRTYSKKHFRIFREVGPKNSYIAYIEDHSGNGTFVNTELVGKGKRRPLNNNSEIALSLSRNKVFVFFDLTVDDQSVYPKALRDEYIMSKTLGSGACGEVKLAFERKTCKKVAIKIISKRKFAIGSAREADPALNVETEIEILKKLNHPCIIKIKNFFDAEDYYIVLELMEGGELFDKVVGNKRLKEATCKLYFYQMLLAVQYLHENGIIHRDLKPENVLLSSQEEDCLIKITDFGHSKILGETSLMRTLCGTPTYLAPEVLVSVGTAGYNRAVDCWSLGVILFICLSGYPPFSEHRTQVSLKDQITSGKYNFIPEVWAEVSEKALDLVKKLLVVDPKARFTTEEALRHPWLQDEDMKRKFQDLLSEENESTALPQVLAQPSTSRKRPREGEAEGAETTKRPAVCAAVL
method_description: CHK2 kinase activity assay (DELFIA, phosphorylation of a CDC25C peptide)
Assay type: biochemical
experimental_setup: following further studies; ATP 30 μM, CHK2 1 nM; read-out: IC50, inhibition of CHK2 kinase activity in vitro
For each entry below, report its IC50 value.

Ask | Can you share its IC50? I mean this molecule: "Oc1ccc(-c2cccc(F)c2)cc1-c1nc(N[C@H]2CCNC2)c2ccccc2n1"
Reply | 300 to 3000 nM

Ask | Quick one: IC50 for "CN(CCO)C(=O)[C@H]1C[C@H](Nc2nc(-c3ccccc3O)nc3ccccc23)CN1" ?
Reply | 300 to 3000 nM

Ask | I'd like to know its IC50. The molecule in question is "O=C([C@H]1C[C@H](Nc2nc(-c3ccccc3O)nc3ccccc23)CN1)N1CCNCC1"
Reply | 300 to 3000 nM

Ask | Give the measured IC50 of "COc1ccc2nc(-c3cc(F)ccc3O)nc(N[C@H]3CCNC3)c2c1" .
Reply | ≤ 300 nM

Ask | Query (molecule): "Oc1ccccc1-c1nc(N[C@H]2CCNC2)c2cc(-c3ccc(CN4CCOCC4)cc3)ccc2n1" ; field requested: IC50
Reply | 300 to 3000 nM

Ask | // lookup IC50 for "CC(C)(O)C#Cc1ccc2c(N[C@H]3CCNC3)nc(-c3cc(F)ccc3O)nc2c1"
Reply | ≤ 300 nM

Ask | Please give the measured IC50 for this molecule: "Oc1ccc(Cl)cc1-c1nc(N[C@@H]2CCCNC2)c2ccccc2n1"
Reply | ≤ 300 nM

Ask | Can you share its IC50? I mean this molecule: O=C(O)C1(Nc2nc(-c3cc(Cl)ccc3O)nc3ccccc23)CCNC1 (centres unmarked)
Reply | 3000 to 30000 nM

###

Exercise: for every item that follows, state its recorded pIC50.
assay_system: CHK2 (Homo sapiens)
Construct: made in house
method_description: CHK2 kinase activity assay (DELFIA, phosphorylation of a CDC25C peptide)
Type: biochemical
experimental_setup: following further studies; ATP 30 μM, CHK2 1 nM; read-out: IC50, inhibition of CHK2 kinase activity in vitro
pIC50: −log10 of the molar value.

Ask | Would you mind telling me what pIC50 value was observed for "NC(=O)c1ccc(-c2ccc(O)c(-c3nc(N[C@H]4CCNC4)c4ccccc4n3)c2)cc1" ?
Reply | 4.52 to 5.52

Ask | Look up pIC50: "Oc1ccccc1-c1nc(N[C@H]2CCNC2)c2ccc(Cl)cc2n1"
Reply | ≥ 6.52

Ask | Consider the compound "CC(C)(O)C#Cc1ccc2nc(-c3cc(F)ccc3O)nc(N[C@H]3CCNC3)c2c1" and give its measured pIC50.
Reply | 5.52 to 6.52

Ask | Look up pIC50: Oc1ccc(F)cc1-c1nc(N[C@@H]2CNC[C@H]2c2cccc(Cl)c2)c2ccccc2n1 (relative stereo)
Reply | 5.52 to 6.52

Ask | Which pIC50 value is on record for "O=C(NCc1ccccc1)[C@H]1C[C@H](Nc2nc(-c3ccccc3O)nc3ccccc23)CN1" ?
Reply | 5.52 to 6.52

Ask | Consider the compound NC1CCC(Nc2nc(-c3ccccc3O)nc3ccccc23)CC1 (stereo not shown) and give its measured pIC50.
Reply | 4.52 to 5.52

Ask | Quick one: pIC50 of N[C@@H]1CCCC[C@H]1Nc1nc(-c2ccccc2O)nc2ccccc12 (relative stereo) ?
Reply | 5.52 to 6.52

Ask | Return reported pIC50; argument: C[C@@H]1CNC[C@H]1Nc1nc(-c2cc(F)ccc2O)nc2ccccc12 (relative stereo)
Reply | ≥ 6.52

Ask | Given the compound COc1ccc([C@@H]2CNC[C@H]2Nc2nc(-c3cc(F)ccc3O)nc3ccccc23)cc1 (relative stereo) , what is its reported pIC50?
Reply | ≥ 6.52

Ask | Sample "COCCOc1ccc2nc(-c3cc(F)ccc3O)nc(N[C@H]3CCNC3)c2c1" — what was its pIC50?
Reply | ≥ 6.52

FYI, the data here is from patent US8324226B2.
